Assay: HPLC-MS/MS quantification of 9 compounds in plasma of RSV-infected mice after Scutellaria baicalensis Georgi administration
Assay type: in vivo, BALB/c mice
Parameters: unit not given here
Conditions: RSV-infected mice; 6 h after last gavage of Scutellaria baicalensis Georgi extract; mean ± SD, n = 6
measured metric: drug-containing plasma content

O=c1cc(-c2ccccc2)oc2c(O)c(O)cc(O)c12 [Norwogonin]: 113.88
COc1c(OC2OC(C(=O)O)C(O)C(O)C2O)cc2oc(-c3ccccc3)cc(=O)c2c1O [Oroxylin A 7-O-beta-D-glucuronide]: 1008.71
COc1c(O[C@@H]2O[C@H](C(=O)O)[C@@H](O)[C@H](O)[C@H]2O)cc(O)c2c(=O)cc(-c3ccccc3)oc12 [Wogonoside]: 3829.58
O=c1cc(-c2ccccc2)oc2cc(O)cc(O)c12 [Chrysin]: 60.64
COc1c(O)cc2oc(-c3ccccc3)cc(=O)c2c1O [Oroxylin A]: 1063.52
COc1c(O)cc(O)c2c(=O)cc(-c3ccccc3)oc12 [Wogonin]: 2664.55

----------
Test: HPLC-MS/MS quantification of 9 compounds in plasma of RSV-infected mice after Scutellaria baicalensis Georgi administration
Format: in vivo, BALB/c mice
Set-up: unit not given here
Conditions: RSV-infected mice; 0.5 h after last gavage of Scutellaria baicalensis Georgi extract; mean ± SD, n = 6
measured metric: drug-containing plasma content

COc1c(O)cc(O)c2c(=O)cc(-c3ccccc3)oc12: 222.21
O=c1cc(-c2ccccc2)oc2c(O)c(O)cc(O)c12: 13.88
COc1c(O)cc2oc(-c3ccccc3)cc(=O)c2c1O: 40.44
O=c1cc(-c2ccccc2)oc2cc(O)cc(O)c12: 10.37
COc1c(OC2OC(C(=O)O)C(O)C(O)C2O)cc2oc(-c3ccccc3)cc(=O)c2c1O [Oroxylin A 7-O-beta-D-glucuronide]: 315.26
COc1c(O[C@@H]2O[C@H](C(=O)O)[C@@H](O)[C@H](O)[C@H]2O)cc(O)c2c(=O)cc(-c3ccccc3)oc12 [Wogonoside]: 776.20

----------
Assay: Stability of 9 compounds in mouse plasma under storage conditions
Assay type: in vitro ADME
Conditions: 12 h at 4 °C, low QC (12.5 or 25.6 ng/mL), n = 6
measured metric: Stability Short-Term RE (%)

O=c1cc(-c2ccccc2)oc2cc(O)cc(O)c12: −5.59
COc1c(O)cc2oc(-c3ccccc3)cc(=O)c2c1O: −3.30
COc1c(OC2OC(C(=O)O)C(O)C(O)C2O)cc2oc(-c3ccccc3)cc(=O)c2c1O [Oroxylin A 7-O-beta-D-glucuronide]: 7.34
COc1c(O[C@@H]2O[C@H](C(=O)O)[C@@H](O)[C@H](O)[C@H]2O)cc(O)c2c(=O)cc(-c3ccccc3)oc12 [Wogonoside]: −3.08
O=c1cc(-c2ccccc2)oc2c(O)c(O)cc(O)c12: −2.17
O=C(O)[C@H]1O[C@@H](Oc2cc(O)c3c(=O)cc(-c4ccc(O)cc4)oc3c2)[C@H](O)[C@@H](O)[C@@H]1O [Apigenin-7-glucuronide]: −3.20
O=C(O)[C@H]1O[C@@H](Oc2cc3oc(-c4ccccc4)cc(=O)c3c(O)c2O)[C@H](O)[C@@H](O)[C@@H]1O: −9.16
COc1c(O)cc(O)c2c(=O)cc(-c3ccccc3)oc12: −9.77

----------
Listing of entries alongside the reported Stability Long-Term RE.
Assay: Stability of 9 compounds in mouse plasma under storage conditions
Type: in vitro ADME
Details: −20 °C for 20 days, low QC (12.5 or 25.6 ng/mL), n = 6
measured metric: Stability Long-Term RE (%)

COc1c(O[C@@H]2O[C@H](C(=O)O)[C@@H](O)[C@H](O)[C@H]2O)cc(O)c2c(=O)cc(-c3ccccc3)oc12 [Wogonoside]: −2.30
O=C(O)[C@H]1O[C@@H](Oc2cc3oc(-c4ccccc4)cc(=O)c3c(O)c2O)[C@H](O)[C@@H](O)[C@@H]1O: −8.15
O=c1cc(-c2ccccc2)oc2cc(O)cc(O)c12: −4.52
COc1c(OC2OC(C(=O)O)C(O)C(O)C2O)cc2oc(-c3ccccc3)cc(=O)c2c1O [Oroxylin A 7-O-beta-D-glucuronide]: 7.73
COc1c(O)cc(O)c2c(=O)cc(-c3ccccc3)oc12: −13.33
COc1c(O)cc2oc(-c3ccccc3)cc(=O)c2c1O: −6.71
O=c1cc(-c2ccccc2)oc2c(O)c(O)cc(O)c12: −8.96
O=C(O)[C@H]1O[C@@H](Oc2cc(O)c3c(=O)cc(-c4ccc(O)cc4)oc3c2)[C@H](O)[C@@H](O)[C@@H]1O [Apigenin-7-glucuronide]: −3.16

----------
Assay: HPLC-MS/MS quantification of 9 compounds in plasma of RSV-infected mice after Scutellaria baicalensis Georgi administration
Format: in vivo, BALB/c mice
Parameters: unit not given here
Settings: RSV-infected mice; 8 h after last gavage of Scutellaria baicalensis Georgi extract; mean ± SD, n = 6
Returns one of true or false; true when drug-containing plasma content is >= 300.

COc1c(O[C@@H]2O[C@H](C(=O)O)[C@@H](O)[C@H](O)[C@H]2O)cc(O)c2c(=O)cc(-c3ccccc3)oc12 [Wogonoside]: true
COc1c(OC2OC(C(=O)O)C(O)C(O)C2O)cc2oc(-c3ccccc3)cc(=O)c2c1O [Oroxylin A 7-O-beta-D-glucuronide]: false
O=c1cc(-c2ccccc2)oc2c(O)c(O)cc(O)c12: false
COc1c(O)cc(O)c2c(=O)cc(-c3ccccc3)oc12: false
O=c1cc(-c2ccccc2)oc2cc(O)cc(O)c12: false

----------
Listing of entries alongside the reported drug-containing plasma content.
Assay: HPLC-MS/MS quantification of 9 compounds in plasma of RSV-infected mice after Scutellaria baicalensis Georgi administration
Assay type: in vivo, BALB/c mice
Design: unit not given here
Details: RSV-infected mice; 0.167 h after last gavage of Scutellaria baicalensis Georgi extract; mean ± SD, n = 6
measured metric: drug-containing plasma content

COc1c(O)cc2oc(-c3ccccc3)cc(=O)c2c1O: 745.77
COc1c(OC2OC(C(=O)O)C(O)C(O)C2O)cc2oc(-c3ccccc3)cc(=O)c2c1O [Oroxylin A 7-O-beta-D-glucuronide]: 603.78
COc1c(O)cc(O)c2c(=O)cc(-c3ccccc3)oc12: 981.37
COc1c(O[C@@H]2O[C@H](C(=O)O)[C@@H](O)[C@H](O)[C@H]2O)cc(O)c2c(=O)cc(-c3ccccc3)oc12 [Wogonoside]: 1829.58
O=c1cc(-c2ccccc2)oc2c(O)c(O)cc(O)c12: 94.18
O=c1cc(-c2ccccc2)oc2cc(O)cc(O)c12: 0

----------
Assay: HPLC-MS/MS quantification of 9 compounds in plasma of RSV-infected mice after Scutellaria baicalensis Georgi administration
Type: in vivo, BALB/c mice
Set-up: unit not given here
Settings: RSV-infected mice; 4 h after last gavage of Scutellaria baicalensis Georgi extract; mean ± SD, n = 6
Listing of entries alongside the reported drug-containing plasma content.
measured metric: drug-containing plasma content

COc1c(O[C@@H]2O[C@H](C(=O)O)[C@@H](O)[C@H](O)[C@H]2O)cc(O)c2c(=O)cc(-c3ccccc3)oc12 [Wogonoside]: 1372.78
COc1c(OC2OC(C(=O)O)C(O)C(O)C2O)cc2oc(-c3ccccc3)cc(=O)c2c1O [Oroxylin A 7-O-beta-D-glucuronide]: 412.32
O=c1cc(-c2ccccc2)oc2c(O)c(O)cc(O)c12: 14.29
COc1c(O)cc2oc(-c3ccccc3)cc(=O)c2c1O: 486.23
O=c1cc(-c2ccccc2)oc2cc(O)cc(O)c12: 12.37
COc1c(O)cc(O)c2c(=O)cc(-c3ccccc3)oc12: 71.39

----------
Test: Stability of 9 compounds in mouse plasma under storage conditions
Format: in vitro ADME
Conditions: 3 times repeated freeze-thaw at −80 °C, low QC (12.5 or 25.6 ng/mL), n = 6
measured metric: Stability 3-Freeze-Thaw Cycles RE (%)

O=c1cc(-c2ccccc2)oc2c(O)c(O)cc(O)c12: −6.11
O=c1cc(-c2ccccc2)oc2cc(O)cc(O)c12: −6.42
COc1c(OC2OC(C(=O)O)C(O)C(O)C2O)cc2oc(-c3ccccc3)cc(=O)c2c1O [Oroxylin A 7-O-beta-D-glucuronide]: 6.23
COc1c(O)cc(O)c2c(=O)cc(-c3ccccc3)oc12: −11.16
COc1c(O[C@@H]2O[C@H](C(=O)O)[C@@H](O)[C@H](O)[C@H]2O)cc(O)c2c(=O)cc(-c3ccccc3)oc12 [Wogonoside]: −8.61
COc1c(O)cc2oc(-c3ccccc3)cc(=O)c2c1O: −4.26
O=C(O)[C@H]1O[C@@H](Oc2cc3oc(-c4ccccc4)cc(=O)c3c(O)c2O)[C@H](O)[C@@H](O)[C@@H]1O: −7.38
O=C(O)[C@H]1O[C@@H](Oc2cc(O)c3c(=O)cc(-c4ccc(O)cc4)oc3c2)[C@H](O)[C@@H](O)[C@@H]1O [Apigenin-7-glucuronide]: −2.43

Data origin, for the record: paper PMC10460054
